assay: Inhibition of post-acid activity of rabbit 20S proteasome; set-up: species or system Oryctolagus cuniculus
Listed below: IC50 values for each entry.
recorded-endpoint: IC50 (µM)

INSERT INTO results (compound, measured_value) VALUES
  ('COC(=O)[C@H](Cc1ccccc1)NC(=O)CC(NNC(=O)[C@H](CCCCNC(=O)OCc1ccccc1)NC(=O)Cc1cccc(Oc2ccccc2)c1)C(F)(F)F (mixture of isomers)', 200),
  ('COC(=O)[C@H](Cc1ccccc1)NC(=O)CC(NNC(=O)[C@H](CCCCN)NC(=O)Cc1cccc(Oc2ccccc2)c1)C(F)(F)F (mixture of isomers)', 2.7),
  ('COC(=O)[C@H](Cc1ccccc1)NC(=O)CC(NNC(=O)[C@H](CCCCN)NC(=O)OC(C)(C)C)C(F)(F)F (mixture of isomers)', 6),
  ('COC(=O)[C@H](Cc1ccccc1)NC(=O)CC(NNC(=O)[C@H](Cc1ccc(OC)c(OC)c1)NC(=O)Cc1cccc(Oc2ccccc2)c1)C(F)(F)F (mixture of isomers)', 72);
